Assay: Inhibition of NS5A in HuH7 cell infected HCV genotype 1b Con1 assessed as decrease in viral replication after 3 days in presence of 40% human plasma by luciferase reporter gene assay
Recorded EC50 values for a group of compounds are listed next.
Give the number; nM is assumed, so skip it.

SMILES STRING	QUANTITY KIND	RECORDED VALUE
COC(=O)N[C@H](C(=O)N1CCC[C@H]1c1nc2cc(F)c([C@H]3CC[C@H](c4cc5[nH]c([C@@H]6CCCN6C(=O)[C@@H](NC(=O)OC)C(C)C)nc5cc4F)N3c3cc(F)c(N4CCC(c5ccc(F)cc5)CC4)c(F)c3)cc2[nH]1)C(C)C	EC50	0.172

// switching to the query compound
The recorded EC50 for COC(=O)N[C@H](C(=O)N1CCC[C@H]1c1nc2ccc([C@H]3CC[C@H](c4ccc5nc([C@@H]6CCCN6C(=O)[C@@H](NC(=O)OC)C(C)C)[nH]c5c4)N3c3ccc(Cl)cc3)cc2[nH]1)C(C)C is 0.33

----------
Recorded EC50 values for a group of molecules are listed next.
Assay: Inhibition of NS5A in HuH7 cell infected HCV genotype 1b Con1 assessed as decrease in viral replication after 3 days in presence of 40% human plasma by luciferase reporter gene assay
Please state the number and follow it with the unit.

MOLECULE	RECORDED VALUE
COC(=O)N[C@H](C(=O)N1CCC[C@H]1c1nc2cc([C@H]3CC[C@H](c4cc5nc([C@@H]6CCCN6C(=O)[C@@H](NC(=O)OC)[C@@H](C)OC)[nH]c5cc4F)N3c3cc(F)c(N4CCC(c5ccc(F)cc5)CC4)c(F)c3)c(F)cc2[nH]1)[C@@H](C)OC [A-1325912.0]	0.2 nM
COC(=O)N[C@H](C(=O)N1CCC[C@H]1c1nc2ccc([C@H]3CC[C@H](c4ccc5nc([C@@H]6CCCN6C(=O)[C@@H](NC(=O)OC)C(C)C)[nH]c5c4)N3c3ccc(F)cc3)cc2[nH]1)C(C)C	0.427 nM
COC(=O)N[C@H](C(=O)N1CCC[C@H]1c1nc2ccc([C@H]3CC[C@H](c4ccc5nc([C@@H]6CCCN6C(=O)[C@@H](NC(=O)OC)C(C)C)[nH]c5c4)N3c3ccc(OC(F)(F)F)cc3)cc2[nH]1)C(C)C	0.23 nM
COC(=O)N[C@H](C(=O)N1CCC[C@H]1c1nc2ccc([C@H]3CC[C@H](c4ccc5nc([C@@H]6CCCN6C(=O)[C@@H](NC(=O)OC)C(C)C)[nH]c5c4)N3c3ccc(N4CCC(c5ccccc5)CC4)cc3)cc2[nH]1)C(C)C	1.51 nM
COC(=O)N[C@H](C(=O)N1CCC[C@H]1c1nc2ccc([C@@H]3CC[C@@H](c4ccc5nc([C@@H]6CCCN6C(=O)[C@@H](NC(=O)OC)C(C)C)[nH]c5c4)N3c3ccc(C(C)(C)C)cc3)cc2[nH]1)C(C)C	0.354 nM

// switching to the query molecule
The recorded EC50 for COC(=O)N[C@H](C(=O)N1CCC[C@H]1C(=O)Nc1ccc([C@@H]2CC[C@@H](c3ccc(NC(=O)[C@@H]4CCCN4C(=O)[C@@H](NC(=O)OC)C(C)C)cc3)N2c2ccc(C(C)(C)C)cc2)cc1)C(C)C [CHEBI:85183] is 0.056 nM

----------
Assay: Inhibition of HCV genotype 1b Con1 NS5A expressed in HuH7 cell infected HCV genotype 4a assessed as decrease in viral replication after 3 days by luciferase reporter gene assay
QUANTITY KIND: EC50 (pM)
Give the number; pM is assumed, so skip it.

SMILES STRING	DISPLAY UNIT	EC50
COC(=O)N[C@H](C(=O)N1CCC[C@H]1C(=O)Nc1ccc([C@@H]2CC[C@@H](c3ccc(NC(=O)[C@@H]4CCCN4C(=O)[C@@H](NC(=O)OC)C(C)C)cc3)N2c2ccc(C(C)(C)C)cc2)cc1)C(C)C	pM	1.7
COC(=O)N[C@H](C(=O)N1CCC[C@H]1c1nc2cc(F)c([C@H]3CC[C@H](c4cc5[nH]c([C@@H]6CCCN6C(=O)[C@@H](NC(=O)OC)[C@@H](C)OC)nc5cc4F)N3c3cc(F)c(N4CCC(c5ccccc5)CC4)c(F)c3)cc2[nH]1)[C@@H](C)OC	pM	3
COC(=O)N[C@H](C(=O)N1CCC[C@H]1c1nc2ccc([C@H]3CC[C@H](c4ccc5nc([C@@H]6CCCN6C(=O)[C@@H](NC(=O)OC)C(C)C)[nH]c5c4)N3c3ccc(Oc4ccccc4)cc3)cc2[nH]1)C(C)C	pM	5
COC(=O)N[C@H](C(=O)N1CCC[C@H]1c1nc2ccc([C@H]3CC[C@H](c4ccc5nc([C@@H]6CCCN6C(=O)[C@@H](NC(=O)OC)C(C)C)[nH]c5c4)N3c3cc(F)c(N4CCC(c5ccccc5)CC4)c(F)c3)cc2[nH]1)C(C)C	pM	4
COC(=O)N[C@H](C(=O)N1CCC[C@H]1c1nc2ccc([C@H]3CC[C@H](c4ccc5nc([C@@H]6CCCN6C(=O)[C@@H](NC(=O)OC)C(C)C)[nH]c5c4)N3c3ccc(C4CCCCC4)cc3)cc2[nH]1)C(C)C	pM	9
COC(=O)N[C@H](C(=O)N1CCC[C@H]1c1nc2ccc([C@H]3CC[C@H](c4ccc5nc([C@@H]6CCCN6C(=O)[C@@H](NC(=O)OC)C(C)C)[nH]c5c4)N3c3ccc(C(C)(C)C)cc3)cc2[nH]1)C(C)C	pM	6
COC(=O)N[C@H](C(=O)N1CCC[C@H]1c1nc2ccc([C@H]3CC[C@H](c4ccc5nc([C@@H]6CCCN6C(=O)[C@@H](NC(=O)OC)C(C)C)[nH]c5c4)N3c3ccc(-c4ccccc4)cc3)cc2[nH]1)C(C)C	pM	6
COC(=O)N[C@H](C(=O)N1CCC[C@H]1c1nc2ccc([C@H]3CC[C@H](c4ccc5nc([C@@H]6CCCN6C(=O)[C@@H](NC(=O)OC)C(C)C)[nH]c5c4)N3c3cc(F)c(N4CCC(c5ccc(F)cc5)CC4)c(F)c3)cc2[nH]1)C(C)C	pM	9

The recorded EC50 for COC(=O)N[C@H](C(=O)N1CCC[C@H]1c1nc2ccc([C@H]3CC[C@H](c4ccc5nc([C@@H]6CCCN6C(=O)[C@@H](NC(=O)OC)C(C)C)[nH]c5c4)N3c3cc(Cl)c(N4CCCCC4)c(Cl)c3)cc2[nH]1)C(C)C is 6

----------
Experiment: Inhibition of HCV genotype 1b Con1 NS5A expressed in HuH7 cell infected HCV genotype 5a assessed as decrease in viral replication after 3 days by luciferase reporter gene assay
Recorded pEC50 values for a group of compounds are listed next.
// pEC50 is dimensionless: -log10 of concentration (M)

Below, each entry is followed by its recorded pEC50 result.
COMPOUND	pEC50
COC(=O)N[C@H](C(=O)N1CCC[C@H]1c1nc2cc([C@H]3CC[C@H](c4cc5nc([C@@H]6CCCN6C(=O)[C@@H](NC(=O)OC)[C@@H](C)OC)[nH]c5cc4F)N3c3cc(F)c(N4CCC(c5ccc(F)cc5)CC4)c(F)c3)c(F)cc2[nH]1)[C@@H](C)OC [A-1325912.0]	11.85
COC(=O)N[C@H](C(=O)N1CCC[C@H]1C(=O)Nc1ccc([C@@H]2CC[C@@H](c3ccc(NC(=O)[C@@H]4CCCN4C(=O)[C@@H](NC(=O)OC)C(C)C)cc3)N2c2ccc(C(C)(C)C)cc2)cc1)C(C)C [CHEBI:85183]	11.49
COC(=O)N[C@H](C(=O)N1CCC[C@H]1c1nc2cc(F)c([C@H]3CC[C@H](c4cc5[nH]c([C@@H]6CCCN6C(=O)[C@@H](NC(=O)OC)C6CCOCC6)nc5cc4F)N3c3cc(F)c(N4CCC(c5ccccc5)CC4)c(F)c3)cc2[nH]1)C1CCOCC1	11.22
COC(=O)N[C@H](C(=O)N1CCC[C@H]1c1nc2ccc([C@H]3CC[C@H](c4ccc5nc([C@@H]6CCCN6C(=O)[C@@H](NC(=O)OC)C(C)C)[nH]c5c4)N3c3cc(F)c(N4CCC(c5ccccc5)CC4)c(F)c3)cc2[nH]1)C(C)C	11.52
COC(=O)N[C@H](C(=O)N1CCC[C@H]1c1nc2cc(F)c([C@H]3CC[C@H](c4cc5[nH]c([C@@H]6CCCN6C(=O)[C@@H](NC(=O)OC)[C@@H](C)OC)nc5cc4F)N3c3cc(F)c(N4CCC(c5ccccc5)CC4)c(F)c3)cc2[nH]1)[C@@H](C)OC	11.70
COC(=O)N[C@H](C(=O)N1CCC[C@H]1c1nc2cc(F)c([C@H]3CC[C@H](c4cc5[nH]c([C@@H]6CCCN6C(=O)[C@@H](NC(=O)OC)C(C)C)nc5cc4F)N3c3cc(F)c(N4CCC(c5ccccc5)CC4)c(F)c3)cc2[nH]1)C(C)C	11.70

The recorded pEC50 for COC(=O)N[C@H](C(=O)N1CCC[C@H]1c1nc2cc(F)c([C@H]3CC[C@H](c4cc5[nH]c([C@@H]6CCCN6C(=O)[C@@H](NC(=O)OC)C6CCOCC6)nc5cc4F)N3c3cc(F)c(N4CCC(c5ccc(F)cc5)CC4)c(F)c3)cc2[nH]1)C1CCOCC1 is 11.30

The recorded pEC50 for COC(=O)N[C@H](C(=O)N1CCC[C@H]1c1nc2cc(F)c([C@H]3CC[C@H](c4cc5[nH]c([C@@H]6CCCN6C(=O)[C@@H](NC(=O)OC)C(C)C)nc5cc4F)N3c3cc(F)c(N4CCC(c5ccc(F)cc5)CC4)c(F)c3)cc2[nH]1)C(C)C is 12.00

The values you see were collected from BindingDB's records for doi:10.1021/acs.jmedchem.8b00082.
